- testedTarget: human Werner helicase (WRN-BV08, Uniprot Q14191, amino acids 517-1235 with L1074F point mutation) (Homo sapiens, UniProt Q14191, L1074F)
- Construct: Uniprot Q14191, amino acids 517-1235 with L1074F point mutation; TEV-cleavable 8×His (C, cleaved yes); made in house; host or cells: Sf9 insect cells (baculovirus)
- Sequence (Q14191 with tags, fused parts or gaps L1074F limits assumed): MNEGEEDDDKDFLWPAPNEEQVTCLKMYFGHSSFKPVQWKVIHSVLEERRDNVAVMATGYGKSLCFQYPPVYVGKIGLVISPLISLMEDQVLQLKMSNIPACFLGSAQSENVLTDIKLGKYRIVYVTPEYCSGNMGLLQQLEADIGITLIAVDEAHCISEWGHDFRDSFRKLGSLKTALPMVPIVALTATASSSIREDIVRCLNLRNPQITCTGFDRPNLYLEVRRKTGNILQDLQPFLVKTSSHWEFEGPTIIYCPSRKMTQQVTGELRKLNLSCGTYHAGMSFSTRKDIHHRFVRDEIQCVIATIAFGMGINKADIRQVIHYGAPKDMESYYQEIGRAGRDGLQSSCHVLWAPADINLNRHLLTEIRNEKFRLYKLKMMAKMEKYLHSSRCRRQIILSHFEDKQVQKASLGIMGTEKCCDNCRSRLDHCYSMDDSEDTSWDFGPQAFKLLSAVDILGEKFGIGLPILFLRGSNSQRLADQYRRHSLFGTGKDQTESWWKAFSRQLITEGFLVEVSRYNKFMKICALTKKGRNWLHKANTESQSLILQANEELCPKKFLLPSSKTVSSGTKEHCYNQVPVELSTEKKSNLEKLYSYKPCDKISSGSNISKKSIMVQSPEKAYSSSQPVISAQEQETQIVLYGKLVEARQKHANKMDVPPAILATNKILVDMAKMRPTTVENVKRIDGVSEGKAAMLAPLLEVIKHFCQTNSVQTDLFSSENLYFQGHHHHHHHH
- protocolText: WRN (BV08) ADP-Glo Assay
- Type: biochemical
- testContext: 0.15 nM WRN, 5 μM ATP, 0.1 nM DNA duplex, 15 min preincubation, 60 min at 25° C., pH 7.5, 1% DMSO; read-out: ADP-Glo_hWRN_IC50
pIC50: −log10 of the molar value.
observedProperty: pIC50

Worked set:
COc1cc(CN(C(=O)Cc2ccc(-n3cccc3C)cc2F)C2C=CS(=O)(=O)C2)ccn1 (single isomer, unassigned) [I-31] : > 6.30
O=C(Cc1ccc(-n2cccc2)cc1)N(Cc1nc2cnccc2s1)C1C=CS(=O)(=O)C1 (stereo not shown) [I-165] : 5.30 to 6.30
CC(C)(O)c1cc(CN(C(=O)C(OCC(F)(F)F)c2ccc(-c3ccc(F)c(F)c3)cc2F)[C@@H]2C=CS(=O)(=O)C2)ccn1 (single isomer, unassigned) [I-805] : > 6.30
COc1cc(CN(C(=O)Cc2ccc(-n3cccc3C)cc2F)C2C=CS(=O)(=O)C2)ccn1 (stereo not shown) [I-69] : > 6.30
O=C(CCc1c[nH]c2cc(Br)ccc12)N(Cc1ccncc1)C1C=CS(=O)(=O)C1 (stereo not shown) [I-304] : 4.30 to 5.00

The recorded pIC50 for entry COC(C(=O)N(Cc1ccnc(C(C)(C)O)c1)C1C=CS(=O)(=O)C1)c1ccc(-c2ccc(F)cc2)cc1F (single isomer, unassigned) [I-10] equals > 6.30

The recorded pIC50 for entry O=C(Cc1noc2ccccc12)N(Cc1ccncc1)C1C=CS(=O)(=O)C1 (stereo not shown) [I-516] equals < 4.30

---

- testedTarget: human Werner helicase (WRN-BV08, Uniprot Q14191, amino acids 517-1235 with L1074F point mutation) (Homo sapiens, UniProt Q14191, L1074F)
- Construct: Uniprot Q14191, amino acids 517-1235 with L1074F point mutation; TEV-cleavable 8×His (C, cleaved yes); made in house; host or cells: Sf9 insect cells (baculovirus)
- protocolText: WRN (BV08) ADP-Glo Assay
- Assay type: biochemical
- testContext: 0.15 nM WRN, 5 μM ATP, 0.1 nM DNA duplex, 15 min preincubation, 60 min at 25° C., pH 7.5, 1% DMSO; read-out: ADP-Glo_hWRN_IC50
observedProperty: IC50

COCCOC(C(=O)N(Cc1ccnc(C(C)(C)O)c1)[C@@H]1C=CS(=O)(=O)C1)c1ccc(S(F)(F)(F)(F)F)cc1 (single isomer, unassigned) [I-765] : 0.5 to 5 µM

The recorded IC50 for entry COCc1cccn1-c1ccc(CC(=O)N(Cc2ccccc2)C2C=CS(=O)(=O)C2)cc1 (centres unmarked) [I-568] equals > 50 µM

The recorded IC50 for entry CCc1ccc(CC(=O)N(Cc2ccncc2)C2C=CS(=O)(=O)C2)cc1 (centres unmarked) [I-308] equals 10 to 50 µM

The recorded IC50 for entry CC(C)(O)c1cc(CN(C(=O)Cc2ncc(-c3ccc(F)c(F)c3)cc2F)C2C=CS(=O)(=O)C2)ccn1 (centres unmarked) [I-82] equals < 0.5 µM

The recorded IC50 for entry COc1ccc(CC(=O)N(Cc2ccncc2)C2C=CS(=O)(=O)C2)cc1OC(F)F (centres unmarked) [I-697] equals > 50 µM

The recorded IC50 for entry Cc1cccn1-c1ccc(CC(=O)N(Cc2ccnc3c2CCO3)C2C=CS(=O)(=O)C2)c(F)c1 (centres unmarked) [I-179] equals 0.5 to 5 µM

The recorded IC50 for entry Cc1cccn1-c1ccc(CC(=O)N(Cc2ccnc(C3(O)CC3)c2)C2C=CS(=O)(=O)C2)c(F)c1 (centres unmarked) [I-90] equals 0.5 to 5 µM

The recorded IC50 for entry O=C(Cc1cccc(CC(F)(F)F)c1)N(Cc1ccncc1)C1C=CS(=O)(=O)C1 (centres unmarked) [I-393] equals > 50 µM

---

# reported pIC50; entries follow
- testedTarget: human Werner helicase (WRN-BV08, Uniprot Q14191, amino acids 517-1235 with L1074F point mutation) (Homo sapiens, UniProt Q14191, L1074F)
- Construct: Uniprot Q14191, amino acids 517-1235 with L1074F point mutation; TEV-cleavable 8×His (C, cleaved yes); made in house; host or cells: Sf9 insect cells (baculovirus)
- protocolText: WRN (BV08) ADP-Glo Assay
- Assay type: biochemical
- testContext: 0.15 nM WRN, 5 μM ATP, 0.1 nM DNA duplex, 15 min preincubation, 60 min at 25° C., pH 7.5, 1% DMSO; read-out: ADP-Glo_hWRN_IC50
pIC50: −log10 of the molar value.

Worked set:
O=C(Cc1ccc(-c2ccsc2)cc1)N(Cc1ccncc1)C1C=CS(=O)(=O)C1 (stereo not shown) : 5.00 to 5.30
CNC(=O)C(C(=O)N(Cc1ccnc(C(C)(C)O)c1)C1C=CS(=O)(=O)C1)c1ccc(-c2ccc(F)c(F)c2)cc1F (single isomer, unassigned) [I-690] : 5.30 to 6.30
O=C(c1ccc(CN(C(=O)Cc2ccc(-c3ccc(F)c(F)c3)cc2F)C2C=CS(=O)(=O)C2)cc1)N1CCCCC1 (stereo not shown) : 5.30 to 6.30
O=C(Cc1ccc(-n2cccc2)cc1)N(Cc1ccc2c(c1)OCO2)C1C=CS(=O)(=O)C1 (stereo not shown) : 5.00 to 5.30
CC(C)(O)c1cc(CN(C(=O)C(c2ccc(-c3ccc(F)c(F)c3)cc2F)n2cccn2)C2C=CS(=O)(=O)C2)ccn1 (single isomer, unassigned) [I-669] : > 6.30
O=C(Cc1ccc(-n2cccc2)cc1)N(Cc1ccccc1)C1C=C(Br)S(=O)(=O)C1 (stereo not shown) : 4.30 to 5.00

Continue with the next compound.
The recorded pIC50 for entry COc1cc(CN(C(=O)C(c2ccc(-c3ccc(F)c(F)c3)cc2F)n2cc(C(F)F)cn2)[C@@H]2C=CS(=O)(=O)C2)ccn1 (stereo partly shown) [I-705] equals 5.30 to 6.30

---

- testedTarget: human Werner helicase (WRN-BV08, Uniprot Q14191, amino acids 517-1235 with L1074F point mutation) (Homo sapiens, UniProt Q14191, L1074F)
- Construct: Uniprot Q14191, amino acids 517-1235 with L1074F point mutation; TEV-cleavable 8×His (C, cleaved yes); made in house; host or cells: Sf9 insect cells (baculovirus)
- protocolText: WRN (BV08) ADP-Glo Assay
- Format: biochemical
- testContext: 0.15 nM WRN, 5 μM ATP, 0.1 nM DNA duplex, 15 min preincubation, 60 min at 25° C., pH 7.5, 1% DMSO; read-out: ADP-Glo_hWRN_IC50
pIC50: −log10 of the molar value.
observedProperty: pIC50

Worked set:
O=C(Cc1ccc(-n2cccc2)cc1)N(Cc1ccc2cc[nH]c2c1)C1C=CS(=O)(=O)C1 (centres unmarked) : < 4.30
O=C(Cc1ccc(-n2cccc2)cc1)N(Cc1cccc(F)c1)C1C=CS(=O)(=O)C1 (centres unmarked) : 5.00 to 5.30

The recorded pIC50 for entry COc1cc(CN(C(=O)C(OCC#N)c2ccc(-c3ccc(F)c(F)c3)cc2F)[C@@H]2C=CS(=O)(=O)C2)ccn1 (some centres unmarked) [I-691] equals 5.30 to 6.30

The recorded pIC50 for entry COc1ccc(-c2ccc(CC(=O)N(Cc3ccncc3)C3C=CS(=O)(=O)C3)cc2)cc1 (centres unmarked) equals < 4.30

The recorded pIC50 for entry O=C(CCc1cc2ccccc2[nH]1)N(Cc1ccncc1)C1C=CS(=O)(=O)C1 (centres unmarked) equals < 4.30

---

- testedTarget: human Werner helicase (WRN-BV08, Uniprot Q14191, amino acids 517-1235 with L1074F point mutation) (Homo sapiens, UniProt Q14191, L1074F)
- Construct: Uniprot Q14191, amino acids 517-1235 with L1074F point mutation; TEV-cleavable 8×His (C, cleaved yes); made in house; host or cells: Sf9 insect cells (baculovirus)
- protocolText: WRN (BV08) ADP-Glo Assay
- Assay type: biochemical
- testContext: 0.15 nM WRN, 5 μM ATP, 0.1 nM DNA duplex, 15 min preincubation, 60 min at 25° C., pH 7.5, 1% DMSO; read-out: ADP-Glo_hWRN_IC50
- Text: Example 2: WRN (BV08) ADP-Glo Assay Protocol Bovine skin gelatin (BSG), dimethyl sulfoxide (DMSO), Pluronic F-127 and Tris(2-carboxyethyl)phosphine hydrochloride solution (TCEP) were purchased from Sigma-Aldrich at the highest level of purity possible. […] The reaction was stopped by the addition of the ADP-Glo Kit components (Promega) as directed and the relative luminescence units (RLU) were read on an Envision 2104 (Perkin Elmer). […]
observedProperty: IC50

The recorded IC50 for entry CC(C)(O)c1cc(CN(C(=O)Cc2ncc(-c3ccc(F)c(F)c3)cn2)C2C=CS(=O)(=O)C2)ccn1 (stereo not shown) equals 0.5 to 5 µM

The recorded IC50 for entry O=C(CC1COc2ccccc2C1)N(Cc1ccncc1)C1C=CS(=O)(=O)C1 (stereo not shown) equals > 50 µM

The recorded IC50 for entry `COc1cc(CN(C(=O)Cc2ccc(-n3cccc3C)cc2F)[C@H]2C=CS(=O)(=O)C2)ccn1` equals > 50 µM

The recorded IC50 for entry CN(C)C(=O)C(C(=O)N(Cc1ccnc(C(C)(C)O)c1)C1C=CS(=O)(=O)C1)c1ccc(-c2ccc(F)cc2)cc1 (single isomer, unassigned) [I-264] equals 5 to 10 µM

The recorded IC50 for entry N#Cc1cc(-n2cccc2)ccc1CC(=O)N(Cc1ccncc1)C1C=CS(=O)(=O)C1 (stereo not shown) equals > 50 µM

The recorded IC50 for entry CC(C(=O)N(Cc1ccnc(C(C)(C)O)c1)[C@@H]1C=CS(=O)(=O)C1)n1cc(-c2ccc(C(F)(F)F)cc2)cn1 (single isomer, unassigned) equals 5 to 10 µM

The recorded IC50 for entry CC(C(=O)N(Cc1ccnc(C(C)(C)O)c1)C1C=CS(=O)(=O)C1)n1cc(-c2cc(F)c(F)c(F)c2)cn1 (single isomer, unassigned) [I-776] equals < 0.5 µM
